PBM binding z-score values, listed per item
Test system: LXRb homodimer (NR concentration 270 nM)
Assay: PBM binding z-score (relative to random genomic background probes); higher = stronger binding; sequences stand for … in GC…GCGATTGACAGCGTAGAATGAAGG
QUANTITY: PBM binding z-score

>>> assay_result("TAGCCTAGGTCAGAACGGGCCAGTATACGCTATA")
-0.65
>>> assay_result("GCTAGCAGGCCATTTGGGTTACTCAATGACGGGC")
-0.959
>>> assay_result("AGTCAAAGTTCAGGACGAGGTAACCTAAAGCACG")
0.245
>>> assay_result("ATGTCTAGGTAAAAGTTCAGTGAATCCCGAGGAT")
0.542
>>> assay_result("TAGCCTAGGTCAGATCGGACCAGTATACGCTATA")
-0.138
>>> assay_result("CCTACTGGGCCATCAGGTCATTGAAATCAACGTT")
-0.244
>>> assay_result("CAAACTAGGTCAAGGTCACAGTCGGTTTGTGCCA")
0.607
>>> assay_result("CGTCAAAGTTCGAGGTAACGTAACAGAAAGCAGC")
-0.403
>>> assay_result("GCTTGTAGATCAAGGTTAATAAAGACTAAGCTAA")
-0.608
>>> assay_result("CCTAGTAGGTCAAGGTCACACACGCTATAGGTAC")
1.12
>>> assay_result("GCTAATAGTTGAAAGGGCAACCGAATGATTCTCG")
-0.087
>>> assay_result("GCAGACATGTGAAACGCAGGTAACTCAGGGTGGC")
-1.11
>>> assay_result("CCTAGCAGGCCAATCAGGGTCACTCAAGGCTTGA")
-0.752
>>> assay_result("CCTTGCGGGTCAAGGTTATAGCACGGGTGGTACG")
-0.432
>>> assay_result("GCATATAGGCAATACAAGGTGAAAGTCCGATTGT")
-0.636
>>> assay_result("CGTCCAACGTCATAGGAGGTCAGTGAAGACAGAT")
-0.234
>>> assay_result("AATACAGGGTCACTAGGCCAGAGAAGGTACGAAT")
0.795
>>> assay_result("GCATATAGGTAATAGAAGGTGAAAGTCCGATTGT")
-0.597
>>> assay_result("GCTGCTAGGTCAGGTTGGTCAGCTGACGGGTACG")
-0.106
>>> assay_result("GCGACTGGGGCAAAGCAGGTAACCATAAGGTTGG")
-0.997
>>> assay_result("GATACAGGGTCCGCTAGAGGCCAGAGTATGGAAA")
-1.38
>>> assay_result("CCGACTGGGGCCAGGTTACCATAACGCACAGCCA")
-0.749
>>> assay_result("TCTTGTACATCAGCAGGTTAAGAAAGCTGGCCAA")
0.127
>>> assay_result("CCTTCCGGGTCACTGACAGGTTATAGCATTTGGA")
0.12
>>> assay_result("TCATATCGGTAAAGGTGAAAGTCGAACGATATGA")
-0.304
>>> assay_result("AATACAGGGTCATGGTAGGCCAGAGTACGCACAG")
1.09
